System: Plasmodium berghei
testName: Luciferase/luciferin-expressing antifolate-resistant parasites were used to infect a culture of HepG2 cells that were pre-incubated with compounds. Infected hepatocytes emit light due to the luciferase reaction. Assay results are presented as the percent inhibition of light emission compared to control. […]
Assay type: functional
testContext: sporozoite, FFLUC_HILL_SLOPE 17.5, FFLUC_R_SQUARED 0.273, HEPG2TOX_HILL_SLOPE 2.17, HEPG2TOX_R_SQUARED 0.985, PBLUC_HILL_SLOPE 7.45, PBLUC_R_SQUARED 0.303, read-out: LUCIFERASE INFECTION ASSAY - IC50
measuredQuantity: IC50 (nM)
// note: answer is a bare numeric in nM

Reported IC50 for Plasmodium berghei, given O=C(C(/C=N/O)=N/Nc1ccc(C(F)(F)F)cc1)c1ccc(Br)cc1 ?
2960

====

Tested on: Plasmodium berghei
testName: Luciferase/luciferin-expressing antifolate-resistant parasites were used to infect a culture of HepG2 cells that were pre-incubated with compounds. Infected hepatocytes emit light due to the luciferase reaction. Assay results are presented as the percent inhibition of light emission compared to control. […]
Assay type: functional
testContext: sporozoite, PBLUC_HILL_SLOPE 1.1, PBLUC_R_SQUARED 0.254, read-out: LUCIFERASE INFECTION ASSAY - IC50
measuredQuantity: pIC50
A value of pIC50 is the negative decimal logarithm of a concentration given in moles per litre.

Given the entry CC(C)(C)NCc1cc(Cl)ccc1OCc1ccccc1F , report its measured pIC50.
5.33

====

Test system: Plasmodium berghei
testName: Luciferase/luciferin-expressing antifolate-resistant parasites were used to infect a culture of HepG2 cells that were pre-incubated with compounds. Infected hepatocytes emit light due to the luciferase reaction. Assay results are presented as the percent inhibition of light emission compared to control. […]
Format: functional
testContext: sporozoite, PBLUC_HILL_SLOPE 24.4, PBLUC_R_SQUARED 0.237, read-out: LUCIFERASE INFECTION ASSAY - IC50
pIC50: −log10 of the molar value.
measuredQuantity: pIC50

Reported pIC50 for Plasmodium berghei, given COc1ccc(C(=O)/C=C/c2cccc3cccnc23)cc1Br ?
< 5.00

====

Test system: Plasmodium berghei
testName: Luciferase/luciferin-expressing antifolate-resistant parasites were used to infect a culture of HepG2 cells that were pre-incubated with compounds. Infected hepatocytes emit light due to the luciferase reaction. Assay results are presented as the percent inhibition of light emission compared to control. […]
Type: functional
testContext: sporozoite, PBLUC_HILL_SLOPE 0.121, PBLUC_R_SQUARED 0.262, read-out: LUCIFERASE INFECTION ASSAY - IC50
measuredQuantity: IC50

Given the entry C(#Cc1ccc(-c2cc[nH]n2)s1)c1ccccc1 , report its measured IC50.
0.0465 µM

====

Test system: Plasmodium berghei
testName: Luciferase/luciferin-expressing antifolate-resistant parasites were used to infect a culture of HepG2 cells that were pre-incubated with compounds. Infected hepatocytes emit light due to the luciferase reaction. Assay results are presented as the percent inhibition of light emission compared to control. […]
Assay type: functional
testContext: sporozoite, HEPG2TOX_HILL_SLOPE 7.66, HEPG2TOX_R_SQUARED 0.177, read-out: LUCIFERASE INFECTION ASSAY - IC50
measuredQuantity: IC50

Given the entry CCOC(=O)c1c(C)oc(-c2ccc(Cl)cc2)c1S(=O)(=O)Nc1cccc(C)c1 , report its measured IC50.
> 7.61 µM
